Data credit: the kinase profiling compilation of Christmann-Franck et al. (2016)

residual activity listing for selected molecules.
Biological target: CAMKK1 (human) (UniProt Q8N5S9)
Sequence (Q8N5S9 whole entry, looked up): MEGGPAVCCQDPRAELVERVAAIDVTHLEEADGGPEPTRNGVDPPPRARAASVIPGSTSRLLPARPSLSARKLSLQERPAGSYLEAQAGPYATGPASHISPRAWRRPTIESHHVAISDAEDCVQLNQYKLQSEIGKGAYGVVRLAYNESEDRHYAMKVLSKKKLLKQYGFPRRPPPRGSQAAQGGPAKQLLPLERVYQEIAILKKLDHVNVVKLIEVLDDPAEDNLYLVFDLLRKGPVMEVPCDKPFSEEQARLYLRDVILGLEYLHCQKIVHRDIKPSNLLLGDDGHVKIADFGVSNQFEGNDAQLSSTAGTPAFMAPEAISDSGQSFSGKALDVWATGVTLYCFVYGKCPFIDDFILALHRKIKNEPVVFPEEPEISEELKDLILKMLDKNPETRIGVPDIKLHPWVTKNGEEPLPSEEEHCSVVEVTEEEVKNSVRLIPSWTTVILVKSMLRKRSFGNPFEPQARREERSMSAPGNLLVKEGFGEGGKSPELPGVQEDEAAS
Assay: radiometric filter-binding kinase assay, Kinase HotSpot
Settings: compound 0.5 µM; ATP 10 µM
Provide the reading as a plain figure in %.

• CCN1/C(=C/C(C)=O)Sc2ccc(OC)cc21 = 105
• O=C1Nc2ccccc2/C1=C\c1c(Cl)[nH]c2ccccc12 = 116
• O=C1Cc2c([nH]c3ccc([N+](=O)[O-])cc23)-c2ccccc2N1 = 91.7
• COc1ccc(-c2cnc3c(-c4ccsc4)cnn3c2)cc1 = 79.2
• CS(=O)c1ccc(-c2nc(-c3ccc(F)cc3)c(-c3ccncc3)[nH]2)cc1 (stereo not given) = 125
• Nc1nc(Nc2ccc(S(N)(=O)=O)cc2)nn1C(=O)c1c(F)cccc1F = 86.4
• O=c1cc(N2CCNCC2)oc2c(-c3ccccc3)cccc12 = 105
• CSc1nc(-c2ccc(F)cc2)c(-c2ccnc(NC(C)c3ccccc3)c2)[nH]1 (stereo not given) = 104
• O=c1cc(-c2cccc3c2Sc2ccccc2S3)oc(N2CCOCC2)c1 = 112
• COc1cc2ncnc(Nc3ccc(F)c(Cl)c3)c2cc1OCCCN1CCOCC1 = 93.8

Exercise: Notebook entry, CAMKK1 (human) (UniProt Q8N5S9) assay: residual activity of `COc1cc2nccc(Oc3ccc(NC(=S)NC(=O)c4ccccc4C)cc3)c2cc1OC` = ?
Solution: 91.2

Exercise: Notebook entry, CAMKK1 (human) (UniProt Q8N5S9) assay: residual activity of `Nc1n[nH]c2nnc(-c3c(-c4ccccc4)nn4ccccc34)cc12` = ?
Solution: 125

Exercise: Notebook entry, CAMKK1 (human) (UniProt Q8N5S9) assay: residual activity of `Nc1nc(Nc2ccc(S(N)(=O)=O)cc2)nn1C(=S)Nc1c(F)cccc1F` = ?
Solution: 36

---

Target: UniProt:P48729
Sequence (P48729 whole entry, looked up): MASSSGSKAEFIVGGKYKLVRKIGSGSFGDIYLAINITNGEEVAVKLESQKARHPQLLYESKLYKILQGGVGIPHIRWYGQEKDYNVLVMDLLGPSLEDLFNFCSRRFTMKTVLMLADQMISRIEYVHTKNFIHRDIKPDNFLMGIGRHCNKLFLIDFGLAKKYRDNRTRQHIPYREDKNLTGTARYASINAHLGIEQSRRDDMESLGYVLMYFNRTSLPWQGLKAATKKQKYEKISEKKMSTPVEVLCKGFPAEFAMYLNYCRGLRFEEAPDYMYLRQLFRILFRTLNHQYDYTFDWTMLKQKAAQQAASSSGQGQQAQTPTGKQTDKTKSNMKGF
Assay: radiometric filter-binding kinase assay, Kinase HotSpot
Settings: compound 0.5 µM; ATP 10 µM
observable: residual activity (%)
Provide the reading as a plain figure in %.

* Clc1ccc(Nc2nnc(Cc3ccncc3)c3ccccc23)cc1 | 95

Exercise: // returns reported residual activity for input `O=c1cc(N2CCNCC2)oc2c(-c3ccccc3)cccc12`
Solution: 104

Exercise: // returns reported residual activity for input `CC(C)[C@H](CO)Nc1nc(Nc2cccc(Cl)c2)c2ncn(C(C)C)c2n1`
Solution: 91.8

---

Molecular target: ABL2 (human)
Experiment: radiometric filter-binding kinase assay, Kinase HotSpot
Settings: compound 0.5 µM; ATP 10 µM
residual activity listing for selected molecules.
Provide the reading as a plain figure in %.

* CC(C)[C@H](CO)Nc1nc(Nc2cccc(Cl)c2)c2ncn(C(C)C)c2n1 | 32.2
* O=C1Nc2ccccc2/C1=C\c1c(Cl)[nH]c2ccccc12 | 91.4

Exercise: // returns reported residual activity for input `Cc1ccc(NC(=O)c2ccc(CN3CCN(C)CC3)cc2)cc1Nc1nc(-c2cccnc2)cs1`
Solution: 57.7

---

residual activity listing for selected compounds.
Target: CHUK (human) (UniProt O15111)
Sequence (O15111 whole entry, looked up): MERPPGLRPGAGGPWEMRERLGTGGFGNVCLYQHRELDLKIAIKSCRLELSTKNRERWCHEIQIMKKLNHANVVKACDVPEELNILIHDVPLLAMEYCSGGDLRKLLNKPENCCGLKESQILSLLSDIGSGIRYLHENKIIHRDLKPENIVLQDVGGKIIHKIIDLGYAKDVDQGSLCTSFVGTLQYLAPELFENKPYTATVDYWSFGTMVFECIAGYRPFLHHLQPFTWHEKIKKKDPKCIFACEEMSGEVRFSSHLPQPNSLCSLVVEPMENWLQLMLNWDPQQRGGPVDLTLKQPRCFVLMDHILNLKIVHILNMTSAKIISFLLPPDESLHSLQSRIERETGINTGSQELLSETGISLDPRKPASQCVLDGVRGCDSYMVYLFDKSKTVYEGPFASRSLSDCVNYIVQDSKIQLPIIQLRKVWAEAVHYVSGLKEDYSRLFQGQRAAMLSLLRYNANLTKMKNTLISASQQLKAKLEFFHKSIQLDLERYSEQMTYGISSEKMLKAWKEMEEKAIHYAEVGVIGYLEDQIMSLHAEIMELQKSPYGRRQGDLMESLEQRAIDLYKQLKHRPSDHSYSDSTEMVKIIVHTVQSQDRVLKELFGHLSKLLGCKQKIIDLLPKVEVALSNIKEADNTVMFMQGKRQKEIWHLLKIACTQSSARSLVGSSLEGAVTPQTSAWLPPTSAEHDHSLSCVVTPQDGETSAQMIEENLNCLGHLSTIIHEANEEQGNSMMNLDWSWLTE
Experiment: radiometric filter-binding kinase assay, Kinase HotSpot
Conditions: compound 0.5 µM; ATP 10 µM
Provide the reading as a plain figure in %.

• O=c1cc(N2CCNCC2)oc2c(-c3ccccc3)cccc12 = 103
• Cc1ccc(NC(=O)c2ccc(CN3CCN(C)CC3)cc2)cc1Nc1nc(-c2cccnc2)cs1 = 96.2
• CC(C)[C@H](CO)Nc1nc(Nc2cccc(Cl)c2)c2ncn(C(C)C)c2n1 = 106
• O=c1cc(-c2cccc3c2Sc2ccccc2S3)oc(N2CCOCC2)c1 = 87.4
• Clc1ccc(Nc2nnc(Cc3ccncc3)c3ccccc23)cc1 = 104
• COc1cc2nccc(Oc3ccc(NC(=S)NC(=O)c4ccccc4C)cc3)c2cc1OC = 98.3

Exercise: // returns reported residual activity for input `Nc1n[nH]c2nnc(-c3c(-c4ccccc4)nn4ccccc34)cc12`
Solution: 97.5

Exercise: // returns reported residual activity for input `O=C1Nc2cc(Br)ccc2/C1=C1/Nc2ccccc2/C1=N\O`
Solution: 104

Exercise: // returns reported residual activity for input CSc1nc(-c2ccc(F)cc2)c(-c2ccnc(NC(C)c3ccccc3)c2)[nH]1 (stereo not given)
Solution: 98.4

Exercise: // returns reported residual activity for input `Nc1nc(Nc2ccc(S(N)(=O)=O)cc2)nn1C(=O)c1c(F)cccc1F`
Solution: 99
